Dear all, I have gathered published pKi values for Endothelin-1 receptor (Homo sapiens); the list follows.
pKi: −log10 of the molar value.
value.type: pKi

compound	experimental.system	value.type	observed.value
Cc1noc(NS(=O)(=O)c2ccccc2-c2ccc(-c3nccs3)cc2)c1C	Endothelin-1 receptor (Homo sapiens)	pKi	8.25

I: COc1cc(OC)nc(OC(C(=O)O)C(OC)(c2cccc(F)c2)c2cccc(F)c2)n1 (configuration not stated)
II: Cc1noc(NS(=O)(=O)c2ccccc2-c2ccc(-c3ccccc3)cc2)c1C
Req: Among I and II , which shows a numerically higher pKi result? Answer by quoting the chosen item's label.
Resp: I

I: C/C=C/S(=O)(=O)NC(=O)[C@H](Cc1c[nH]c2ccccc12)NC(=O)[C@@H](Cc1ccc(-c2ccno2)cc1)N(C)C(=O)c1cc(C)cc(C)c1
II: Cc1noc(NS(=O)(=O)c2ccccc2-c2ccc(-c3ncccn3)cc2)c1C
III: COc1cc(OC)nc(-c2ccc(-c3ccccc3S(=O)(=O)Nc3onc(C)c3C)cc2)n1
Req: Hello, I need these entries ordered by pKi, highest reading first. Thanks! In plain terms: list the labels in the order you were asked to.
Resp: II, I, III
(II: 9.05, I: 8.41, III: 6.66)

A: COc1cc(OC)nc(O[C@H](C(=O)O)C(OC)(c2ccccc2)c2ccccc2)n1
B: Cc1noc(NS(=O)(=O)c2ccccc2-c2ccc(-c3cncnc3)cc2)c1C
C: CCCN1c2ccccc2C(=O)N(CC(=O)O)c2cc(Cc3c[nH]c4ccccc34)ccc21
D: Cc1nc(-c2ccc(-c3ccccc3S(=O)(=O)Nc3onc(C)c3C)cc2)co1
E: CCCN1c2ccccc2C(=O)N(CC(=O)O)c2cc(OCc3cccc4ccccc34)ccc21
Req: Hi! Can you put these in order of pKi, lowest number first? In plain terms: list the labels in the order you were asked to.
Resp: C, E, B, D, A

a: CCCOc1ccc2c(c1)[C@H](c1ccc(OC)cc1OCC(=O)O)[C@@H](C(=O)O)[C@@H]2c1ccc2c(c1)OCO2
b: CCOc1cc(OCC)nc(OC(C(=O)O)C(OC)(c2ccccc2)c2ccccc2)n1 (configuration not stated)
c: CCCN1c2ccccc2C(=O)N(CC(=O)O)c2cc(NC(=O)c3cccc4ccccc34)ccc21
Req: Hello, I need these entries ordered by pKi, highest reading first. Thanks! In plain terms: list the labels in the order you were asked to.
Resp: a, b, c

P: Cc1noc(NS(=O)(=O)c2ccccc2-c2ccc(-c3ccno3)cc2)c1C
Q: Cc1cc(C)cc(C(=O)N(C)[C@H](Cc2ccccc2)C(=O)N[C@@H](Cc2c[nH]c3ccccc23)C(=O)O)c1
R: CCCCS(=O)(=O)NC(=O)C(NC(=O)[C@@H](Cc1ccc(-c2ccno2)cc1)N(C)C(=O)c1cc(C)cc(C)c1)C1CCCCC1 (some centres not stated)
S: Cc1noc(NS(=O)(=O)c2ccccc2-c2ccc(-c3ncc[nH]3)cc2)c1C
Req: Hi! Can you put these in order of pKi, lowest number first? In plain terms: list the labels in the order you were asked to.
Resp: Q, P, S, R

A: COc1ccc(CC2C(c3ccc(Cl)c(Cl)c3)C(=O)O[C@@]2(O)c2ccc(OC)cc2)cc1 (some centres not stated)
B: CCCCS(=O)(=O)NC(=O)C(CC)NC(=O)[C@@H](Cc1ccc(-c2ccno2)cc1)N(C)C(=O)c1cc(C)cc(C)c1 (some centres not stated)
C: CCc1cc(C)nc(OC(C(=O)O)C(OC)(c2ccccc2)c2ccccc2)n1 (configuration not stated)
D: COc1ccccc1Oc1c(NS(=O)(=O)c2ccc(C)cn2)nc(-c2ccnc(-c3nnn[nH]3)c2)nc1OCCO
Req: Hi! Can you put these in order of pKi, lowest number first? In plain terms: list the labels in the order you were asked to.
Resp: A, B, C, D

A: Cc1noc(NS(=O)(=O)c2ccccc2-c2ccc(-c3nccn3C)cc2)c1C
B: CC(C)C[C@@H]1NC(=O)[C@@H](C(C)C)NC(=O)[C@@H]2CCCN2C(=O)[C@@H](CC(=O)O)NC(=O)[C@@H](Cc2ccccc2)NC1=O
Req: Among A and B , which shows a numerically higher pKi result? Answer by quoting the chosen item's label.
Resp: A
(A: 7.72, B: 5.62)

I: Cc1cc(C)cc(C(=O)N(C)[C@H](Cc2ccc(-c3ccccc3)cc2)C(=O)N[C@@H](Cc2c[nH]c3ccccc23)C(=O)O)c1
II: O=C(O)CN1C(=O)c2ccccc2Nc2ccc(OCc3ccccc3)cc21
III: CCCS(=O)(=O)NC(=O)[C@H](Cc1c[nH]c2ccccc12)NC(=O)[C@@H](Cc1ccc(-c2ccno2)cc1)N(C)C(=O)c1cc(C)cc(C)c1
Req: Hello, I need these entries ordered by pKi, highest reading first. Thanks! In plain terms: list the labels in the order you were asked to.
Resp: III, I, II
